B1: ZNF511 (parent)
chain: HLYPADFRFDKPKKSRSPASAEAP

Variants of: B1
PROTOCOL: protein stability index of a GFP-peptide fusion (GPS, HEK-293T) (PSI 1-6); higher = more stable;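 also: lentivirally expressed fusions sorted by FACS into six bins by GFP to DsRed ratio, PSI derived from sequencing read proportions per bin multiplied by bin number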
RUN_CONDITIONS: c terminus: a fixed tail appended
For each record, write down the corresponding protein stability index.
Just the number, please, no unit attached.

Please fill in: protein stability index reported for K14D = 3.29

# protein stability index of H1V = 3.67

protein stability index reported for this variant D10A : 2.16

The recorded protein stability index for entry R16G equals 3.29

Measured protein stability index of D10I : 1.87

In plain terms, E22D has a documented protein stability index of 2.99

// field: protein stability index; key: S15V ; value = 2.36

Just so you know, measured protein stability index for R16M came out at 3.28

protein stability index for S20Y is 2.61

protein stability index for L2V is 2.69

Reported protein stability index of A23H : 3.13

// S20P : protein stability index value = 2.72

The variant F7K showed protein stability index equal to 4.71

Recorded result, S15Q , protein stability index: 3.19

Looking up L2C , I see its protein stability index listed as 3.53

Documented protein stability index of P18F : 2.3

Entry D6P — recorded protein stability index = 3.19

For this variant ( P18M ), measured protein stability index is 2.78

Entry A19H — recorded protein stability index = 2.68

variant A19Y , protein stability index observed: 2.69

Notebook: A5L , protein stability index read as 3.02

protein stability index recorded for this variant, Y3D , is 4.58

Data provenance is the supplement of paper PMC10567573.
